Ref: patent US5264429A

Molecular target: human leukocyte elastase (HLE) (Homo sapiens, UniProt P08246)
Construct: from tissue; host or cells: human white blood cells
Sequence (P08246 30-247 limits assumed): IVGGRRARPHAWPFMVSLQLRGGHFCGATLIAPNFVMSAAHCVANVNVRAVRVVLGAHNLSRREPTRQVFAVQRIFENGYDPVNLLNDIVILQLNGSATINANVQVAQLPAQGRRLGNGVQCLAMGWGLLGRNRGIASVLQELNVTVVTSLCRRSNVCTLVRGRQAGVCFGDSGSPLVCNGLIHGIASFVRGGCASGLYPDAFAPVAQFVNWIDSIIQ
Assay: Enzyme Assay for Inhibition of HLE
Type: biochemical
Conditions: HLE 10 nM, pH 7.6, 10 minute preincubation, 30° C.
Quantity kind: IC50 (nM)

// recorded IC50 for CC1=C(C(=O)OC(C)(C)C)N2C(=O)[C@H](Br)[C@H]2S(=O)(=O)C12CC2(c1ccccc1)c1ccccc1 (stereo partly drawn) : 4.96

The recorded IC50 for entry CC1=C(C(=O)OC(c2ccccc2)c2ccccc2)N2C(=O)[C@H](Br)[C@H]2S(=O)(=O)C12CC2(C)c1ccccc1 (stereo partly drawn) equals 4.73

(A) CC1=C(C(=O)OC(c2ccccc2)c2ccccc2)N2C(=O)[C@H](Br)[C@H]2S(=O)(=O)C12CC2(c1ccccc1)c1ccccc1 (single isomer, unassigned)
(B) CC1=C(C(=O)OC(c2ccccc2)c2ccccc2)N2C(=O)[C@H](Cl)[C@H]2S(=O)(=O)C12CC2(c1ccccc1)c1ccccc1 (single isomer, unassigned)
(C) CC(=O)OCC1=C(C(=O)OC(C)(C)C)N2C(=O)[C@H](Cl)[C@H]2S(=O)(=O)C12CC2(c1ccccc1)c1ccccc1 (stereo partly drawn)
(D) CC1=C(C(=O)OC(c2ccccc2)c2ccccc2)N2C(=O)CC2S(=O)(=O)C12CC2(c1ccccc1)c1ccccc1 (stereo not drawn)
input: Please give the order of these compounds when sorted by IC50, largest value leading. Submit the labels in the order that the ranking request calls for.
output: D, C, A, B

====

Target: trypsin (Bos taurus)
Construct: from tissue; host or cells: bovine pancreas
Sequence (P00760 24-246): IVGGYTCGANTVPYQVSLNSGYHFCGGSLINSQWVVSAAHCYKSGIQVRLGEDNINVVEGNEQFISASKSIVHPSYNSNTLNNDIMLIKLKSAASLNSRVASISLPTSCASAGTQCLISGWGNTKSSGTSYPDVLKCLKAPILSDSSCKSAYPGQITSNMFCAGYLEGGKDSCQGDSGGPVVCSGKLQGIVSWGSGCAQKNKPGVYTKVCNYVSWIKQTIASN
Experiment: Inhibition of trypsin (TRY)
Type: biochemical, bovine
Conditions: trypsin, pH 8.8, 10 minute preincubation, 22° C.; read-out: IC50 TRY (converted)
IC50 listing for selected compounds.

Query CO[C@H]1C(=O)N2C(C(=O)N3CCCC3)=C(C)C3(CC3(c3ccccc3)c3ccccc3)S(=O)(=O)[C@H]12 (stereo partly drawn) yields IC50 of > 35.9 µM

IC50 for CO[C@H]1C(=O)N2C(C(=O)N3CCCCC3)=C(C)C3(CC3(c3ccccc3)c3ccccc3)S(=O)(=O)[C@H]12 (stereo partly drawn) is > 10 µM

IC50 for CC1=C(C(=O)OC(c2ccccc2)c2ccccc2)N2C(=O)[C@H](Br)[C@H]2S(=O)(=O)C12CC2(c1ccccc1)c1ccccc1 (single isomer, unassigned) is > 37 µM

Lab note: measured IC50 of CO[C@H]1C(=O)N2C(C(=O)OCC(Cl)(Cl)Cl)=C(C)C3(CC3(c3ccccc3)c3ccccc3)S(=O)(=O)[C@H]12 (stereo partly drawn) was 0.648 µM

Entry CC1=C(C(=O)OC(c2ccccc2)c2ccccc2)N2C(=O)[C@H](Cl)[C@H]2S(=O)(=O)C12CC2(c1ccccc1)c1ccccc1 (single isomer, unassigned) ; IC50 = > 60 µM

Sure, the documented IC50 for CC1=C(C(=O)OC(C)(C)C)N2C(=O)[C@H](Br)[C@H]2S(=O)(=O)C12CC2(c1ccccc1)c1ccccc1 (stereo partly drawn) is > 40 µM
